The reported numbers originate from ChEMBL document CHEMBL1129525.

# pIC50 per record follows
tested on: Toxoplasma gondii; experiment: Inhibition of Toxoplasma gondii cell growth; format: functional, organism-based
Keep it numeric: pIC50 is minus log10 of the concentration in mol/L.

Previously resolved entries follow.
# QUERY_SMILES, pIC50
measured = [
    ("COc1cccc(C)c1NCc1cnc2nc(N)nc(N)c2c1C", 6.52),
    ("Cc1cc(Cl)ccc1NCc1ccc2nc(N)nc(N)c2c1", 6.70),
    ("COc1cc(NCc2cnc3nc(N)nc(N)c3c2)cc(OC)c1OC", 4.82),
    ("COc1ccc(SCc2cnc3nc(N)nc(N)c3n2)cc1", 5.52),
    ("Cc1c(CSc2ccccc2)cnc2nc(N)nc(N)c12", 6.70),
]

Next:
Task: Endpoint output: pIC50 of COc1ccc(NCc2cnc3nc(N)nc(N)c3c2C)cc1OC . Value?
Output: 6.22
